# System: 565232-114-T-J1-PDC complex spheroid viability;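 further: spheroids exposed to compounds for 7 days before readout; 100% = DMSO vehicle wells with luminescence normalized to vehicle control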
# Assay Comment: Anticancer human tumor 565232-114-T-J1-PDC patient-derived bladder carcinoma cell line growth inhibition [CLK]
# Reported Conditions: second compound 3.16 µM; first compound 0.1 µM; active compounds read low
# Source text: A high-throughput screen of multi-cell type tumor spheroids was designed to identify active combinations of […] and targeted small molecules. Complex spheroids include a stromal component modeled by human endothelial cells (HUVEC) and fibroblasts modeled by human mesenchymal stem cells (MSCs). […] Compounds. […] If the clinical Cmax for an agent had not been determined, the highest concentration tested was 10 microM. […]
The entries below come with measured viability, T/C values attached.
Assay Readout: viability, T/C

Compound | Value
COc1c(OCCCN2CCOCC2)ccc2c3n(c(=NC(=O)c4cnc(N)nc4)nc12)CCN3 + CNC(=O)c1ccc(Nc2nc(OC3CCCC3)c3c(-c4ccc5nc(C)oc5c4)c[nH]c3n2)c(OC)c1 | 4.99%
O=c1[nH]cc(F)c(=O)[nH]1 + CNC(=O)c1ccc(Nc2nc(OC3CCCC3)c3c(-c4ccc5nc(C)oc5c4)c[nH]c3n2)c(OC)c1 | 16.4%
CCN1CCN(Cc2ccc(Nc3ncc(F)c(-c4cc(F)c5nc(C)n(C(C)C)c5c4)n3)nc2)CC1 + CNC(=O)c1ccc(Nc2nc(OC3CCCC3)c3c(-c4ccc5nc(C)oc5c4)c[nH]c3n2)c(OC)c1 | 22.9%
